Data credit: patent USRE47150

Assign variant/HC_D62R to each entry below.
Target: T1, mouse tissue factor pathway inhibitor (TFPI) (mouse, UniProt O54819 29-289, limits assumed)
T1 construct: bought; also called mTFPI; murine TFPI
T1 sequence (looked up): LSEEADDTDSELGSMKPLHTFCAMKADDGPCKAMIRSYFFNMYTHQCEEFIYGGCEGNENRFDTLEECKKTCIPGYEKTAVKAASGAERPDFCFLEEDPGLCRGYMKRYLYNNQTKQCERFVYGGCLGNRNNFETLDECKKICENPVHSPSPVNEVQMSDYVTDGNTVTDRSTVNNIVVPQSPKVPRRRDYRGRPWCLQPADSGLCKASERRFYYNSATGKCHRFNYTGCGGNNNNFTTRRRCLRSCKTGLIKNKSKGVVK
Assay: competitive ELISA
The reply should consist of the numeric value with the unit placed after it.

See these solved cases before continuing.
[[record]]
binder = "4B7 HC N32D+D62R+H107M+Y112D/LC D33R+N35I+D97T (Fab, V domains shown) VH: QVQLQQSGPGLVKPSQTLSLTCAISGDSVSSDSAAWSWIRQSPGRGLEWLGIIYKRSKWYNRYAVSVKSRITINPDTSKNQFSLQLNSVTPEDTAVYYCARWHSDKMWGFDDWGQGTLVTVSS VL: DIVMTQSPLSLPVTPGEPASISCRSSQSLVFSRGITYLNWYLQKPGQSPQLLIYKGSNRASGVPDRFSGSGSGTDFTLKISRVEAEDVGVYYCQQYTSYPLTFGQGTKVEIKR"
observation_type = "variant/HC_D62R"
result = "28.1 ratio"

[[record]]
binder = "4B7 HC N32D+D62R+Y112D/LC S32R+D33F+N35I+D97T+S98H (Fab, V domains shown) VH: QVQLQQSGPGLVKPSQTLSLTCAISGDSVSSDSAAWSWIRQSPGRGLEWLGIIYKRSKWYNRYAVSVKSRITINPDTSKNQFSLQLNSVTPEDTAVYYCARWHSDKHWGFDDWGQGTLVTVSS VL: DIVMTQSPLSLPVTPGEPASISCRSSQSLVFRFGITYLNWYLQKPGQSPQLLIYKGSNRASGVPDRFSGSGSGTDFTLKISRVEAEDVGVYYCQQYTHYPLTFGQGTKVEIKR"
observation_type = "variant/HC_D62R"
result = "7.1 ratio"

[[record]]
binder = "4B7 HC N32D+D62R+H107M+Y112D/LC F31I+D33R+N35I (Fab, V domains shown) VH: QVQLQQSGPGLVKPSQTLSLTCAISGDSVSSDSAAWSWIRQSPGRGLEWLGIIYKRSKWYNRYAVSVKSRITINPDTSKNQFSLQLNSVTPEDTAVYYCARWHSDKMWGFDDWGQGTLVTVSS VL: DIVMTQSPLSLPVTPGEPASISCRSSQSLVISRGITYLNWYLQKPGQSPQLLIYKGSNRASGVPDRFSGSGSGTDFTLKISRVEAEDVGVYYCQQYDSYPLTFGQGTKVEIKR"
observation_type = "variant/HC_D62R"
result = "43 ratio"


For every item in the list below, what is its measured variant/HC_D62R?
1. 4B7 HC D62Q+Y112D/LC S32R+D33F+N35I (Fab, V domains shown) VH: QVQLQQSGPGLVKPSQTLSLTCAISGDSVSSNSAAWSWIRQSPGRGLEWLGIIYKRSKWYNQYAVSVKSRITINPDTSKNQFSLQLNSVTPEDTAVYYCARWHSDKHWGFDDWGQGTLVTVSS VL: DIVMTQSPLSLPVTPGEPASISCRSSQSLVFRFGITYLNWYLQKPGQSPQLLIYKGSNRASGVPDRFSGSGSGTDFTLKISRVEAEDVGVYYCQQYDSYPLTFGQGTKVEIKR
2. 4B7 HC N32D+D62R+Y112D/LC S32R+D33F+N35I+K44R+D97T (Fab, V domains shown) VH: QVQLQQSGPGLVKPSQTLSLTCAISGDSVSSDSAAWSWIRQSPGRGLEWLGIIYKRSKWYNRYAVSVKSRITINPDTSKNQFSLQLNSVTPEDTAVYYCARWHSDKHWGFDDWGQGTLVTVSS VL: DIVMTQSPLSLPVTPGEPASISCRSSQSLVFRFGITYLNWYLQRPGQSPQLLIYKGSNRASGVPDRFSGSGSGTDFTLKISRVEAEDVGVYYCQQYTSYPLTFGQGTKVEIKR

output:
38.1 ratio
40.1 ratio
